# PROTOCOL_DETAILS: Half life was determined
# Assay type: ADME
# STATED_CONDITIONS: rat
READOUT: half-life (min)
// units = min; emit number, no label

// known answers, use as guide
CC[C@H](c1ccc(O)cc1)[C@@H](CC)c1ccc(OCC2CO2)cc1 (stereo not given in full) | 240
CC[C@H](c1ccc(O)cc1)[C@@H](CC)c1ccc(CCl)cc1 | 78
CC[C@H](c1ccc(O)cc1)[C@@H](CC)c1ccc(OCC(=O)CCl)cc1 | 15
CC[C@H](c1ccc(O)cc1)[C@@H](CC)c1ccc(OCC(O)CCl)cc1 (stereo not given in full) | 30

Please look at the following molecule next.
Problem: Which half-life reading was recorded for the molecule CC[C@H](c1ccc(O)cc1)[C@@H](CC)c1ccc(OCC(O)CBr)cc1 (stereo not given in full) ?
Result: 30

====

# PROTOCOL_DETAILS: Half life was determined
# Type: ADME
# STATED_CONDITIONS: rat
Listing: half-life of selected compounds
// units = min; emit number, no label

Problem: Which half-life reading was recorded for the compound CC[C@H](c1ccc(O)cc1)[C@@H](CC)c1ccc(C(=O)CCl)cc1 ?
Result: 30

Problem: Next entry: CC[C@H](c1ccc(O)cc1)[C@@H](CC)c1ccc(S(=O)(=O)F)cc1
Result: 60

Problem: Next entry: CC[C@H](c1ccc(O)cc1)[C@@H](CC)c1ccc(CBr)cc1
Result: 150

====

# SYSTEM: Estrogen receptor (Ovis aries) (UniProt P49885+Q9TU15)
# PROTOCOL_DETAILS: Inactivation of lamb uterine estrogen receptor
# Assay type: protein assay
# Set-up: concentration or dose not given beside the values
Classify by measured Inactivation: Y if it is equal to or exceeds 40%, N if it is smaller.

CC[C@H](c1ccc(O)cc1)[C@@H](CC)c1ccc(C(=O)CCl)cc1 | N
CC[C@H](c1ccc(O)cc1)[C@@H](CC)c1ccc(C(=O)CBr)cc1 | Y
CC[C@H](c1ccc(O)cc1)[C@@H](CC)c1ccc(OCC2CO2)cc1 (stereo not given in full) | Y
CC[C@H](c1ccc(O)cc1)[C@@H](CC)c1ccc(OCC(=O)CBr)cc1 | N
CC[C@H](c1ccc(O)cc1)[C@@H](CC)c1ccc(CBr)cc1 | Y
CC[C@H](c1ccc(O)cc1)[C@@H](CC)c1ccc(S(=O)(=O)F)cc1 | N
CC[C@H](c1ccc(O)cc1)[C@@H](CC)c1ccc(CCl)cc1 | Y
CC[C@H](c1ccc(O)cc1)[C@@H](CC)c1ccc(OCC(=O)CCl)cc1 | N
CC[C@H](c1ccc(O)cc1)[C@@H](CC)c1ccc(OCC(O)CBr)cc1 (stereo not given in full) | N

Consider the record given below.
Problem: Please indicate if the recorded Inactivation for CC[C@H](c1ccc(O)cc1)[C@@H](CC)c1ccc(OCC(O)CCl)cc1 (stereo not given in full) meets or exceeds 40%.
Result: N

====

# SYSTEM: Estrogen receptor (Ovis aries) (UniProt P49885+Q9TU15)
# PROTOCOL_DETAILS: Binding affinity against estrogen receptor in lamb uterine cytosol, relative to that of [3H]estradiol
# Type: protein assay
Classify by measured Binding affinity: true (1) if it is equal to or exceeds 4%, false (0) if it is smaller.

Example entries and their recorded answers appear below.
CC[C@H](c1ccc(O)cc1)[C@@H](CC)c1ccc(OCC(=O)C=[N+]=[N-])cc1 | false (0)
CC[C@H](c1ccc(O)cc1)[C@@H](CC)c1ccc(OCC(=O)CCl)cc1 | true (1)
CC[C@H](c1ccc(O)cc1)[C@@H](CC)c1ccc(OCC2CO2)cc1 (stereo partly drawn) | true (1)
CC[C@H](c1ccc(O)cc1)[C@@H](CC)c1ccc(OCC(O)CO)cc1 (stereo partly drawn) | true (1)
CC[C@H](c1ccc(O)cc1)[C@@H](CC)c1ccc(N=[N+]=[N-])cc1 | true (1)
CC[C@H](c1ccc(O)cc1)[C@@H](CC)c1ccc(C#N)cc1 | true (1)
CC[C@H](c1ccc(O)cc1)[C@@H](CC)c1ccc([N+](=O)[O-])cc1 | true (1)
CC[C@H](c1ccc(O)cc1)[C@@H](CC)c1ccc(C(=O)O)cc1 | false (0)

Consider the record given below.
Problem: Please indicate if the recorded Binding affinity for CC[C@H](c1ccc(O)cc1)[C@@H](CC)c1ccc(OC)cc1 meets or exceeds 4%.
Result: true (1)

====

# SYSTEM: Estrogen receptor (Ovis aries) (UniProt P49885+Q9TU15)
# PROTOCOL_DETAILS: Binding affinity against estrogen receptor in lamb uterine cytosol, relative to that of [3H]estradiol
# Type: protein assay
# label = bin(measured Binding affinity), where bins are low bin (below 2%), mid bin (2% to below 10%), high bin (10% or more)

Example entries and their recorded answers appear below.
CC[C@H](c1ccc(O)cc1)[C@@H](CC)c1ccc(C(=O)CBr)cc1 | low bin
C=CCc1cc([C@@H](CC)[C@@H](CC)c2ccc(O)cc2)ccc1O | high bin
CC[C@H](c1ccc(O)cc1)[C@@H](CC)c1ccc(N)cc1 | high bin
CC[C@H](c1ccc(O)cc1)[C@@H](CC)c1ccc(C(C)=O)cc1 | mid bin
CC[C@H](c1ccc(O)cc1)[C@@H](CC)c1ccc(OCC(C)=O)cc1 | high bin

Problem: Assign a category based on measured Binding affinity for CC[C@H](c1ccc(O)cc1)[C@@H](CC)c1ccc(OCC(O)CBr)cc1 (some centres undefined) and give only the class name.
Result: mid bin

Problem: Next entry: CCOCc1ccc([C@H](CC)[C@H](CC)c2ccc(O)cc2)cc1
Result: mid bin

Problem: Next entry: CC[C@H](c1ccc(O)cc1)[C@@H](CC)c1ccc(OCCO)cc1
Result: high bin

Problem: Next entry: C=CCOc1ccc([C@H](CC)[C@H](CC)c2ccc(O)cc2)cc1
Result: mid bin

Problem: Next entry: CC[C@H](c1ccc(O)cc1)[C@@H](CC)c1ccc(CO)cc1
Result: high bin

Problem: Next entry: CC[C@H](c1ccc(O)cc1)[C@@H](CC)c1ccc(CBr)cc1
Result: mid bin

Problem: Next entry: CC[C@H](c1ccc(O)cc1)[C@@H](CC)c1ccc(OCCOCCCl)cc1
Result: low bin

Problem: Next entry: CC[C@H](c1ccc(O)cc1)[C@@H](CC)c1ccc(C(=O)CCl)cc1
Result: low bin

Problem: Next entry: CC[C@H](c1ccc(O)cc1)[C@@H](CC)c1ccc(OCC(C)O)cc1 (some centres undefined)
Result: mid bin

Problem: Next entry: CC[C@H](c1ccc(O)cc1)[C@@H](CC)c1ccc(S(=O)(=O)N=[N+]=[N-])cc1
Result: low bin

Problem: Next entry: CC[C@H](c1ccc(O)cc1)[C@@H](CC)c1ccc(S(=O)(=O)F)cc1
Result: low bin

Problem: Next entry: CCOC(=O)COc1ccc([C@H](CC)[C@H](CC)c2ccc(O)cc2)cc1
Result: mid bin

Problem: Next entry: CC[C@H](c1ccc(O)cc1)[C@@H](CC)c1ccc(CCl)cc1
Result: mid bin

Problem: Next entry: CCC(c1ccc(O)cc1)C(CC)c1ccc(OC)cc1 (centres undefined)
Result: high bin

Problem: Next entry: CC[C@H](c1ccc(O)c(CCCO)c1)[C@@H](CC)c1ccc(O)cc1
Result: high bin

Problem: Next entry: CC[C@H](c1ccc(O)cc1)[C@@H](CC)c1ccc(OCC(O)CCl)cc1 (some centres undefined)
Result: mid bin

====

Listing: Binding affinity of selected compounds
# SYSTEM: Estrogen receptor (Ovis aries) (UniProt P49885+Q9TU15)
# PROTOCOL_DETAILS: Binding affinity against estrogen receptor in lamb uterine cytosol, relative to that of [3H]estradiol
# Assay type: protein assay
// units = %; emit number, no label

// known answers, use as guide
CC[C@H](c1ccc(O)cc1)[C@@H](CC)c1ccc(OCC(=O)CBr)cc1 | 9.5
CC[C@H](c1ccc(O)cc1)[C@@H](CC)c1ccc(OCC(=O)O)cc1 | 0.12

Please look at the following compound next.
Problem: Which Binding affinity reading was recorded for the compound CCOC(=N)c1ccc([C@H](CC)[C@H](CC)c2ccc(O)cc2)cc1 ?
Result: 1.9
